- TESTED SYSTEM: T1, PTPN13_4, Q12923
- T1 sequence (Q12923 1783-1878, limits assumed, looked up): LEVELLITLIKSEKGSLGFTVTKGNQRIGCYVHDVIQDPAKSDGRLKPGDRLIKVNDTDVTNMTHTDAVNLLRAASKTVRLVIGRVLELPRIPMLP
- MEASUREMENT NOTES: holdup assay
- Set-up: key: below the threshold = too weak to quantify, mostly under pKd 3.1 to 4
- CONDITION CONTEXT: plain residues with an end cap or a label only (N-terminal biotin on a linker: ttds)
OBSERVATION TYPE: pKd

BINDER	pKd
RLPKIKETTV [FRMPD4, Q14CM0]	below the threshold
QRQARSETLV [HPV59-E6, Q81964]	4.42
SGSRPSATVV [HPV73-E6, Q82005]	below the threshold
RLQRRRETQV [HPV18-E6, P06463]	4.03
RHTTSTETAV [HPV30-E6, P36809]	below the threshold
RPLPRKVSQL [DOCK4, Q8N1I0]	below the threshold
SKPTRRETEV [HPV35-E6, P27228]	below the threshold

Shift focus to the following entry.
Recorded result, SSLQSLETSV [ATP2B4, P23634] , pKd: below the threshold
